- protocol.text: Octanol/PBS partition coefficient, shake-flask method
- Type: physicochemical
- particulars: 32 °C, pH 7.4, n = 3
Listed below: P (partition coefficient) values for each entry.

// Input: CC(C)N=C(N)N=C(N)N . Output its P (partition coefficient) only. 0.061

// Input: N=C(N)NC(N)=Nc1ccccc1 [compound 2, phenyl biguanide] . Output its P (partition coefficient) only. 0.236

// Input: CC(C)N=C(N)N=C(N)NC(C)C . Output its P (partition coefficient) only. 3.371

// Input: NC(N)=NC(N)=NCc1ccccc1 . Output its P (partition coefficient) only. 0.184

---

- system: isolated bovine heart complex I (Bos taurus, UniProt P03887+P03898+P17694+P42026)
- Sequence (P42026 38-216): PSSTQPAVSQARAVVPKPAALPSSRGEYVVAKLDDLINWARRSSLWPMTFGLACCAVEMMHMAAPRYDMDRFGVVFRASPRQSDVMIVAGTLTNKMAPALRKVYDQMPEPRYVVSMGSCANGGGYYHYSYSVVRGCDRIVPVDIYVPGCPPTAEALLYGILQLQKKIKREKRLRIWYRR
- Sequence (P17694 34-463): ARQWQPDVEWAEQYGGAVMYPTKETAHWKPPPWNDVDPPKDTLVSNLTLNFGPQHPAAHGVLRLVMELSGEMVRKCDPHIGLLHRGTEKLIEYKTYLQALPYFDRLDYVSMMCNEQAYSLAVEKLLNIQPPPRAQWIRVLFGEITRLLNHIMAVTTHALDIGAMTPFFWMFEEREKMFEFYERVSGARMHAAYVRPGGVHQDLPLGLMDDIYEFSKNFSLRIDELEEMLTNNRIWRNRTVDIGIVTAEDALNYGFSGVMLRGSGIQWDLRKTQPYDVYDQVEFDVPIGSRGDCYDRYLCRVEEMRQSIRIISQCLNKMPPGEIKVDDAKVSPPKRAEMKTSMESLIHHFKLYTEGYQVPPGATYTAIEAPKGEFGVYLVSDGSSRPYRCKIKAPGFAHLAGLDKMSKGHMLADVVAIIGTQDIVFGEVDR
- Sequence (P03898 whole entry): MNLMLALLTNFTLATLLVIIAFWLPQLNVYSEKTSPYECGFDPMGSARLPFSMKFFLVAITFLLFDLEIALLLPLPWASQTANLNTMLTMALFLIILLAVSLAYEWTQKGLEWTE
- Sequence (P03887 whole entry): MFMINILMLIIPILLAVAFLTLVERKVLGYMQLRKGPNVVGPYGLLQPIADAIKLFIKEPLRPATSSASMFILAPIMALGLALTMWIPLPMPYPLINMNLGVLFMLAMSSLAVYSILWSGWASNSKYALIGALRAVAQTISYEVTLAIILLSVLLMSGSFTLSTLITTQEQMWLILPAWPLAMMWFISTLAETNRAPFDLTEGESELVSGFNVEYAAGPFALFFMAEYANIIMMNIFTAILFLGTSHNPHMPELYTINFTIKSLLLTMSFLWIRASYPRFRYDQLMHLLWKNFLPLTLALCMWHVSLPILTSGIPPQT
- protocol.text: NADH:decylubiquinone oxidoreduction by isolated complex I
- Type: biochemical
- particulars: bovine heart purified mitochondrial complex I; Prism log(inhibitor) vs. response fit, Bottom 0, Top 100; read-out: IC50 (best fit value)
assay.endpoint: pIC50
Give only the number. pIC50 is defined as minus log10 of concentration in molar units.

Worked examples follow.
NC(N)=NC(N)=NCc1ccccc1: 3.25
NC(N)=NC(N)=NCCc1ccc(Cl)cc1: 3.71
CC(C)N=C(N)N=C(N)NC(C)C: 3.61

// Input: CC(C)N=C(N)N=C(N)N . Output its pIC50 only. 2.17

---

Listed below: Complex II assay (succinate:O2 oxidoreduction), average values for each entry.
- Tested on: bovine mitochondrial membranes (complexes II-III-IV)
- protocol.text: Succinate:O2 oxidoreduction (complexes II-III-IV, complex II assay) by bovine mitochondrial membranes
- Format: biochemical, Bos taurus
- particulars: biguanide concentrations set to the IC50 values for NADH:O2 on bovine membranes; control = 100.00; n = 3
# respond with the number and nothing more

Look up bovine mitochondrial membranes (complexes II-III-IV) data: Complex II assay (succinate:O2 oxidoreduction), average of NC(N)=NC(N)=NCCc1ccc(Cl)cc1 , then report it. 92.41

Look up bovine mitochondrial membranes (complexes II-III-IV) data: Complex II assay (succinate:O2 oxidoreduction), average of NC(N)=NC(N)=NCc1ccccc1 , then report it. 97.37

---

- Tested on: mouse heart mitochondria
- protocol.text: ADP-stimulated rotenone-sensitive OCR in isolated mouse heart mitochondria
- Format: biochemical
- Set-up: unit not given here
- particulars: average of replicates
- Experimental: Complex I and mitochondrial membranes were prepared from Bos taurus (bovine) heart. Intact mitochondria were isolated from rat liver and mouse heart and liver. Membranes were prepared from mouse heart mitochondria by 5 s bursts of sonication at 4 °C and collected by centrifugation (75,000 × g, 1 h). Isolated mitochondria were monitored using a Seahorse XF96 extracellular flux analyzer at 32 °C. […] Then two baseline readings were taken before the biguanides were added at IC50/5. […]
rotenone sensitive OCR after ADP stimulation, average strictly less than 200 = 1. Otherwise -1.

Field: example entries. Status: answers known.
N=C(N)NC(N)=Nc1ccccc1 [compound 2, phenyl biguanide]: -1
NC(N)=NC(N)=NCc1ccccc1 [compound 3, 2-benzyl-1-(diaminomethylidene)guanidine]: 1
[H]/N=C(/N)N/C(=N/[H])NCCc1ccccc1 [phenformin, reference compound]: 1
NC(N)=NC(N)=NCCc1ccc(Cl)cc1 [compound 1]: 1

Lab log: compare recorded rotenone sensitive OCR after ADP stimulation, average with 200; is it strictly lower for CC(C)N=C(N)N=C(N)N [compound 4] ? 1

Lab log: compare recorded rotenone sensitive OCR after ADP stimulation, average with 200; is it strictly lower for [H]/N=C(\N/C(=N/[H])Nc1ccc(Cl)cc1)NC(C)C [proguanil, reference compound] ? -1

Lab log: compare recorded rotenone sensitive OCR after ADP stimulation, average with 200; is it strictly lower for CC(C)N=C(N)N=C(N)NC(C)C [compound 5] ? -1

---

- system: bovine heart mitochondrial membranes (complex I) (Bos taurus, UniProt P03887+P03898+P17694+P42026)
- protocol.text: NADH:O2 oxidoreduction by bovine heart mitochondrial membranes (complexes I-III-IV)
- Format: biochemical
- particulars: sample given as Bovine heart mitochondrial membranes; Prism variable slope fit, Bottom 0, Top 100
Listed below: HillSlope (best fit value) values for each entry.
# respond with the number and nothing more

Worked examples follow.
[H]/N=C(\N/C(=N/[H])Nc1ccc(Cl)cc1)NC(C)C [proguanil, reference compound]: -1.025
CC(C)N=C(N)N=C(N)N: -1.156
NC(N)=NC(N)=NCc1ccccc1: -0.5756
N=C(N)NC(N)=Nc1ccccc1 [compound 2, phenyl biguanide]: -0.7595
CC(C)N=C(N)N=C(N)NC(C)C: -0.7631

// Input: NC(N)=NC(N)=NCCc1ccc(Cl)cc1 . Output its HillSlope (best fit value) only. -0.6555

---

- system: bovine heart mitochondrial membranes (complex I) (Bos taurus, UniProt P03887+P03898+P17694+P42026)
- protocol.text: NADH:O2 oxidoreduction by bovine heart mitochondrial membranes (complexes I-III-IV)
- Assay type: biochemical
- particulars: sample given as Bovine heart mitochondrial membranes; Prism log(inhibitor) vs. response variable slope fit (four parameters), Bottom 0, Top 100; read-out: IC50 (best fit value)
assay.endpoint: IC50 (µM)
Give just the number in µM; leave the unit off.

CC(C)N=C(N)N=C(N)NC(C)C: 322
NC(N)=NC(N)=NCc1ccccc1: 970
CC(C)N=C(N)N=C(N)N: 28800

// Input: NC(N)=NC(N)=NCCc1ccc(Cl)cc1 . Output its IC50 only. 398

---

Listed below: remaining activity at 130 µM values for each entry.
- system: mouse heart mitochondrial membranes (complex I) (Mus musculus, UniProt P03888+P03899+Q91WD5+Q9DC70)
- Sequence (P03899 whole entry): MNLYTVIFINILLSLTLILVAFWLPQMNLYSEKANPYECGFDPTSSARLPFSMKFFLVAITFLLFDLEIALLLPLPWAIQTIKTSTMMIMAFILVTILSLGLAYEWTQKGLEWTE
- Sequence (P03888 whole entry): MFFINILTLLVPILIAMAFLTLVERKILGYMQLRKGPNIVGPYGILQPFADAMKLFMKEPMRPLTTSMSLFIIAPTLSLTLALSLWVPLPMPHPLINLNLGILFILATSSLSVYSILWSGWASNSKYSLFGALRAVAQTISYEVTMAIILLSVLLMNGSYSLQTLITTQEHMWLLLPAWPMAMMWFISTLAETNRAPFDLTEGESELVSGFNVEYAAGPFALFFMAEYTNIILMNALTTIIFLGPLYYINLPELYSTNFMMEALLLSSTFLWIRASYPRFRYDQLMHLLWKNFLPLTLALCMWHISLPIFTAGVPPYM
- Sequence (Q9DC70 36-224): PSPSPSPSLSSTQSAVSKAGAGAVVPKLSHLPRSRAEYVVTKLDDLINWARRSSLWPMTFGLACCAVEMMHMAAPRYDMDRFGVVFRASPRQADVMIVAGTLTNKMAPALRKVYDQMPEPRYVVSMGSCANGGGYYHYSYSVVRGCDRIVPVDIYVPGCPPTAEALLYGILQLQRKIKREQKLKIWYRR
- Sequence (Q91WD5 34-463): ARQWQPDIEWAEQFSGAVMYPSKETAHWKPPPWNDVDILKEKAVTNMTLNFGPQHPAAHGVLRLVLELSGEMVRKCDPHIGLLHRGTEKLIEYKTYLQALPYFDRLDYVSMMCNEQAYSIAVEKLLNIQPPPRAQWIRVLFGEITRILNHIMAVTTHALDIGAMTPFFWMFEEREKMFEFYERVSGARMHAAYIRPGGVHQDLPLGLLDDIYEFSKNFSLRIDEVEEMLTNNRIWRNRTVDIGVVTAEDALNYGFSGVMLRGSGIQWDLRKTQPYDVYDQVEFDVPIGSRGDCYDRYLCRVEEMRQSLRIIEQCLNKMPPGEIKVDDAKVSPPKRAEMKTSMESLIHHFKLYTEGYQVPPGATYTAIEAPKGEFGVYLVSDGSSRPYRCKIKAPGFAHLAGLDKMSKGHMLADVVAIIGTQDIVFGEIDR
- protocol.text: NADH:O2 oxidoreduction by mouse heart mitochondrial membranes
- Assay type: biochemical
- particulars: inhibitor 0.13 mM, read-out: average % (rate, % of no-inhibitor control)
Give just the number in %; leave the unit off.

Worked examples follow.
N=C(N)N=C(N)Nc1ccccc1 [compound2]: 95.5
NC(N)=NC(N)=NCCc1ccc(Cl)cc1 [compound 1]: 75.2
NC(N)=NC(N)=NCc1ccccc1 [compound 3, 2-benzyl-1-(diaminomethylidene)guanidine]: 99.2

// Input: [H]/N=C(/N)N/C(=N/[H])NCCc1ccccc1 [phenformin, reference compound] . Output its remaining activity at 130 µM only. 80.6

---

- system: isolated bovine heart complex I (Bos taurus, UniProt P03887+P03898+P17694+P42026)
- protocol.text: NADH:decylubiquinone oxidoreduction by isolated complex I
- Format: biochemical
assay.endpoint: IC50

// Input: N=C(N)NC(N)=Nc1ccccc1 [compound 2, phenyl biguanide] . Output its IC50 only. 458 µM

---

- system: isolated bovine heart complex I (Bos taurus, UniProt P03887+P03898+P17694+P42026)
- protocol.text: NADH:decylubiquinone oxidoreduction by isolated complex I
- Format: biochemical
- particulars: bovine heart purified mitochondrial complex I; inhibitor 0.10 mM; read-out: average % (rate, % of no-inhibitor control)
Listed below: remaining activity at 100 µM values for each entry.
Give just the number in %; leave the unit off.

N=C(N)N=C(N)Nc1ccccc1: 82.1
NC(N)=NC(N)=NCCc1ccc(Cl)cc1: 67.7
NC(N)=NC(N)=NCc1ccccc1: 80

// next entry
// Input: CC(C)N=C(N)N=C(N)NC(C)C . Output its remaining activity at 100 µM only. 70.7

---

Listed below: remaining activity at 250 µM values for each entry.
- system: mouse heart mitochondrial membranes (complex I) (Mus musculus, UniProt P03888+P03899+Q91WD5+Q9DC70)
- protocol.text: NADH:O2 oxidoreduction by mouse heart mitochondrial membranes
- Format: biochemical
- particulars: inhibitor 0.25 mM, read-out: average % (rate, % of no-inhibitor control)
Give just the number in %; leave the unit off.

Worked examples follow.
N=C(N)N=C(N)Nc1ccccc1: 81.9
NC(N)=NC(N)=NCCc1ccc(Cl)cc1: 62.1
[H]/N=C(/N)N/C(=N/[H])NCCc1ccccc1 [phenformin, reference compound]: 70.4

// next entry
// Input: NC(N)=NC(N)=NCc1ccccc1 . Output its remaining activity at 250 µM only. 93.8

---

- System: 143B cells
- protocol.text: Rotenone-sensitive oxygen consumption rate in intact 143B cells
- Format: cell-based, human
- particulars: 143B cells; biguanide at IC50/10
rotenone sensitive OCR after 6 hours of biguanide exposure, % control, average strictly less than 3 % control = Condition met. Otherwise Condition not met.

[H]/N=C(\N/C(=N/[H])Nc1ccc(Cl)cc1)NC(C)C [proguanil, reference compound]: Condition not met
CC(C)N=C(N)N=C(N)N: Condition met
[H]/N=C(/N)N/C(=N/[H])NCCc1ccccc1 [phenformin, reference compound]: Condition not met

Lab log: compare recorded rotenone sensitive OCR after 6 hours of biguanide exposure, % control, average with 3 % control; is it strictly lower for CC(C)N=C(N)N=C(N)NC(C)C ? Condition not met

Lab log: compare recorded rotenone sensitive OCR after 6 hours of biguanide exposure, % control, average with 3 % control; is it strictly lower for NC(N)=NC(N)=NCc1ccccc1 ? Condition not met

Lab log: compare recorded rotenone sensitive OCR after 6 hours of biguanide exposure, % control, average with 3 % control; is it strictly lower for N=C(N)NC(N)=Nc1ccccc1 [compound 2, phenyl biguanide] ? Condition not met
